Provide the reported pIC50 of each item.
- System: CEM cells HIV-1 protection, formazan growth assay
- experiment: NCI AIDS Antiviral Assay
- studyConditions: measured here: growth of uninfected CEM cells
pIC50 field: float, defined as -log10 of concentration (mol/L).

GET /value?item= Oc1ccc2ccccc2c1-c1c(Nc2ccccc2)ccc2ccccc12 &field=pIC50 returns 5.05

GET /value?item= CN(C)C(=S)N/N=C\C(=N/NC(=S)N(C)C)c1ccccc1 &field=pIC50 returns 4.89

GET /value?item= C[C@@H](CN1CC(=O)NC(=O)C1)N1CC(=O)NC(=O)C1 &field=pIC50 returns 4.04

GET /value?item= Cn1nnc2c(C(N)=O)ncn2c1=O &field=pIC50 returns 3.11

GET /value?item= COC(=O)c1cc(C(=CC(=O)OC(C)(C)C)c2cc(Cl)c(OC)c(C(=O)OC)c2)cc(Cl)c1OC &field=pIC50 returns 4.85

GET /value?item= c1cc(CSP234N5CCN2CCN3CCN4CC5)ccc1CSP123N4CCN1CCN2CCN3CC4 &field=pIC50 returns 4.44

GET /value?item= COc1cc(OC)c2c(=O)c3ccccc3n3c(C(C)O)cc1c23 (stereo unspecified) &field=pIC50 returns 5.32
